experimentalSystem: T1, human IL-23 (IL-23-His-Biotin, Akesobio, 20161209) (human, UniProt Q9NPF7 20-189; P29460 23-328)
T1 construct: His-tagged and biotinylated; also called human IL23-His-Biotin
T1 sequence (looked up) 1: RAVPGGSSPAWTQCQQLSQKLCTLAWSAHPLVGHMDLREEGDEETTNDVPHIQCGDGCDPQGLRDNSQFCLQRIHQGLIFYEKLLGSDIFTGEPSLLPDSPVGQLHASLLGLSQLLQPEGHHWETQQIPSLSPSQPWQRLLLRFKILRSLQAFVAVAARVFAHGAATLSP
T1 sequence (looked up) 2: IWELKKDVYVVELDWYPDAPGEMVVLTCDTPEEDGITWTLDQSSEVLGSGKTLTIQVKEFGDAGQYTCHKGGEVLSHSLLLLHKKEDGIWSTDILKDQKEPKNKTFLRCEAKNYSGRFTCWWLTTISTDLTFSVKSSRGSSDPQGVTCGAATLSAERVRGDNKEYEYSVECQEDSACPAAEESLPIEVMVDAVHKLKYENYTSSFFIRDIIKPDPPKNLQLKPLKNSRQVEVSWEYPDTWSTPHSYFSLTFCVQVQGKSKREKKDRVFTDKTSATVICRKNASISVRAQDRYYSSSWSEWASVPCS
procedureSummary: FACS competition, IL-23-His-Biotin 2 µg/mL on 293T-IL-12RB1&IL-23R cells, antibody 30 µg/mL
reportedProperty: MFI

Q) MFI lookup needed for H5L14 (antibody, human IgG1, kappa, V domains shown, IgG1/kappa) VH: EVQLVQSGAEVKKPGESLKISCQSSGYSFTTYWIGWVRQMPGQGLEWIGIMSPVDSDIRYNPMFRGQVTMSVDKSSSTAYLQWSSLKASDTAMYYCARRRPGQGYFDFWGQGTMVTVSS VL: EIVLTQSPATLSASPGERATISCRASQSVSSWLAWYQQKPGQAPRSLIYAASNLQSGIPARFSGSGSGTDFTLTISSLEPEDFAVYYCQQYNIYPFTFGQGTRLEIKR , thanks.
A) 14.1

Q) Moving on to the next binder: H5L12 (antibody, human IgG1, kappa, V domains shown, IgG1/kappa) VH: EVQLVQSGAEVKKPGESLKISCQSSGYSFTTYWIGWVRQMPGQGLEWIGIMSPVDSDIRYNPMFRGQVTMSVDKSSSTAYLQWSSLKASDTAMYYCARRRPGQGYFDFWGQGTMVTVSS VL: EIVLTQSPATLSASPGERATISCRASQSVSSWLAWYQQKPGQAPRSLIYAASNRQSGIPARFSGSGSGTDFTLTISSLEPEDFAVYYCQQYNIYPYTFGQGTRLEIKR
A) 12.3

Q) Moving on to the next binder: H5L11 (antibody, human IgG1, kappa, V domains shown, IgG1/kappa) VH: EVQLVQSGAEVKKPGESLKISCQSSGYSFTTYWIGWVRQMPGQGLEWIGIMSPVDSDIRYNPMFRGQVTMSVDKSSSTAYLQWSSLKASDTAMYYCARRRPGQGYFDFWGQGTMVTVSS VL: EIVLTQSPATLSASPGERATISCRASQSVSSWLAWYQQKPGQAPRSLIYSASNLQSGIPARFSGSGSGTDFTLTISSLEPEDFAVYYCQQYNIYPYTFGQGTRLEIKR
A) 12.9
